- Tested on: PAF-Induced Bronchoconstriction
- PROTOCOL DETAILS: PAF Induced Bronchoconstriction Assay
- Format: in vivo, guinea pig
- CONDITION DESCRIPTION: i.v. (dose not given), 1 minute pretreatment, PAF 1.0 μg/kg i.v.
Answer each item with its documented Percent Inhib. of PAF-Induced Bronchoconstriction, mg/Kg i.v..
Provide only the numeric value, understood in %.

Ask | Any idea what Percent Inhib. of PAF-Induced Bronchoconstriction, mg/Kg i.v. came out for CCCCCCCC/C(=C\C=C\C(=O)N[C@H](C)CCCc1cccnc1)c1ccc(OC)cc1 on PAF-Induced Bronchoconstriction?
Reply | 98

Ask | State its Percent Inhib. of PAF-Induced Bronchoconstriction, mg/Kg i.v. on PAF-Induced Bronchoconstriction: COc1ccc(C(=C/C=C/C(=O)NCCCCc2cccnc2)c2ccc(OC)cc2)cc1
Reply | 92

Ask | Form field: Percent Inhib. of PAF-Induced Bronchoconstriction, mg/Kg i.v. recorded for COc1ccc(C(=C/C=C/C(=O)NCCCc2ccncc2)c2ccc(OC)cc2)cc1 with PAF-Induced Bronchoconstriction (enter value)
Reply | 8

Ask | // map COc1ccc(/C(=C\C=C\C(=O)N[C@H](C)CCCc2cccnc2)C2CC2)cc1 to recorded Percent Inhib. of PAF-Induced Bronchoconstriction, mg/Kg i.v. (system: PAF-Induced Bronchoconstriction)
Reply | 85

Ask | # returns recorded Percent Inhib. of PAF-Induced Bronchoconstriction, mg/Kg i.v. (system: PAF-Induced Bronchoconstriction) for CCCCC/C(=C\C=C\C(=O)NCCCCc1cccnc1)c1ccc(OC)cc1
Reply | 99

Ask | What is its Percent Inhib. of PAF-Induced Bronchoconstriction, mg/Kg i.v. for PAF-Induced Bronchoconstriction? Entry: COc1ccc(C(=C/C=C/C(=O)NC(CCCc2cccnc2)C(C)C)c2ccc(OC)cc2)cc1 (racemic)
Reply | 87

Ask | For PAF-Induced Bronchoconstriction, provide Percent Inhib. of PAF-Induced Bronchoconstriction, mg/Kg i.v. of CCCCCC(=C/C=C/C(=O)N[C@H](C)CCCc1cccnc1)CCCCC please.
Reply | 78

Ask | Short answer please: Percent Inhib. of PAF-Induced Bronchoconstriction, mg/Kg i.v., PAF-Induced Bronchoconstriction, entry CCCCC(CCCc1cccnc1)NC(=O)/C=C/C=C(c1ccc(OC)cc1)c1ccc(OC)cc1 (racemic)
Reply | 42

Ask | Please state recorded Percent Inhib. of PAF-Induced Bronchoconstriction, mg/Kg i.v. (tested on PAF-Induced Bronchoconstriction) of CCCCC/C(=C\C=C\C(=O)N[C@H](C)CCCc1cccnc1)c1cccc(F)c1
Reply | 93

Ask | Field: Percent Inhib. of PAF-Induced Bronchoconstriction, mg/Kg i.v. (PAF-Induced Bronchoconstriction). Entry: CCCCCCCCCCCC/C(=C\C=C\C(=O)N[C@H](C)CCCc1cccnc1)c1ccc(OC)cc1
Reply | 28

Ask | Percent Inhib. of PAF-Induced Bronchoconstriction, mg/Kg i.v. of COc1ccc(C(=C/C=C/C(=O)N[C@@H](C)CCCc2cccnc2)c2ccc(OC)cc2)cc1 on PAF-Induced Bronchoconstriction?
Reply | 42

Ask | Recall the recorded Percent Inhib. of PAF-Induced Bronchoconstriction, mg/Kg i.v. for C[C@H](CCCc1cccnc1)NC(=O)/C=C/C=C(c1ccc(F)cc1)c1ccc(F)cc1 with PAF-Induced Bronchoconstriction and state it.
Reply | 70

Ask | Under PAF-Induced Bronchoconstriction: Percent Inhib. of PAF-Induced Bronchoconstriction, mg/Kg i.v. value of CCC(CCCc1cccnc1)NC(=O)/C=C/C=C(c1ccc(OC)cc1)c1ccc(OC)cc1 (racemic) ?
Reply | 86

Ask | Please state recorded Percent Inhib. of PAF-Induced Bronchoconstriction, mg/Kg i.v. (tested on PAF-Induced Bronchoconstriction) of COc1ccc(C(=C/C=C/C(=O)Nc2ccc(-c3cccnc3)cc2)c2ccc(OC)cc2)cc1
Reply | 97

Ask | Item CCCCC/C(=C\C=C\C(=O)NC(C)CCCc1cccnc1C)c1ccc(OC)cc1 (racemic) with PAF-Induced Bronchoconstriction - Percent Inhib. of PAF-Induced Bronchoconstriction, mg/Kg i.v.?
Reply | 77

Ask | Record COc1ccc(C(=C/C=C/C(=O)NC(CCCc2cccnc2)C2CCCCC2)c2ccc(OC)cc2)cc1 (racemic) : what is its Percent Inhib. of PAF-Induced Bronchoconstriction, mg/Kg i.v. with PAF-Induced Bronchoconstriction?
Reply | 11

Ask | Query the reported Percent Inhib. of PAF-Induced Bronchoconstriction, mg/Kg i.v. for PAF-Induced Bronchoconstriction; item: CCCC/C(=C\C=C\C(=O)N[C@H](C)CCCc1cccnc1)c1ccc(OC)cc1
Reply | 99

Ask | Reported Percent Inhib. of PAF-Induced Bronchoconstriction, mg/Kg i.v. for PAF-Induced Bronchoconstriction, given COc1ccc(/C(=C/C=C/C(=O)NCCCCc2cccnc2)c2ccccc2OC)cc1 ?
Reply | 36

Ask | Missing value: Percent Inhib. of PAF-Induced Bronchoconstriction, mg/Kg i.v., PAF-Induced Bronchoconstriction, entry O=C(/C=C/C=C(c1ccccc1)c1ccccc1)NCCCCc1cccnc1 . Fill in?
Reply | 35

Ask | Which Percent Inhib. of PAF-Induced Bronchoconstriction, mg/Kg i.v. is reported with PAF-Induced Bronchoconstriction for this entry: COc1ccc(/C(C)=C/C=C/C(=O)N[C@H](C)CCCc2cccnc2)cc1 ?
Reply | 42

Ask | Record O=C(/C=C/C=C(c1cccc([N+](=O)[O-])c1)c1cccc([N+](=O)[O-])c1)NCCCCc1cccnc1 : what is its Percent Inhib. of PAF-Induced Bronchoconstriction, mg/Kg i.v. with PAF-Induced Bronchoconstriction?
Reply | 18
